Below, each of the compounds is paired with its reported drug sensitivity score value.
- Test system: FMOC06 (patient-derived mucinous ovarian cancer cells)
- test: drug sensitivity score (DSS3, normalised partial AUC of % inhibition dose-response) (DSS (score)); higher = more sensitive (stronger inhibition of viability); extreme values may be limits of the assay
- conditions-used: 72 h; library: FO5A; assay format: 2D, 384-well, CellTiter-Glo
measured-property: drug sensitivity score

>>> test_result("Cn1nnc2c(C(N)=O)ncn2c1=O [Temozolomide]")
0
>>> test_result("CNC(=O)c1cccc(-c2ccc3c(N4CCOC[C@@H]4C)nc(N4CCOC[C@@H]4C)nc3n2)c1")
14.8
>>> test_result("C#Cc1cccc(Nc2ncnc3cc(OCCOC)c(OCCOC)cc23)c1")
3
>>> test_result("CCOC(=O)C1=CCCC[C@H]1S(=O)(=O)Nc1ccc(F)cc1Cl")
0.1
>>> test_result("CC(O)(CS(=O)(=O)c1ccc(F)cc1)C(=O)Nc1ccc(C#N)c(C(F)(F)F)c1 (stereo unspecified) [Bicalutamide]")
1.1
>>> test_result("COc1cc2c(N3CCN(C(=O)Nc4ccc(OC(C)C)cc4)CC3)ncnc2cc1OCCCN1CCCCC1")
0
>>> test_result("CC(C)NC[C@@H](C(=O)N1CCN(c2ncnc3c2[C@H](C)C[C@H]3O)CC1)c1ccc(Cl)cc1")
4
>>> test_result("CCC/C=C/C=C/C(=O)O[C@H]1/C(=C/C(=O)OC)C[C@H]2C[C@H]([C@@H](C)O)OC(=O)C[C@H](O)C[C@@H]3C[C@H](OC(C)=O)C(C)(C)[C@](O)(C[C@@H]4C/C(=C/C(=O)OC)C[C@H](/C=C/C(C)(C)[C@]1(O)O2)O4)O3")
6.8
>>> test_result("NCC(=O)Nc1ccc(-n2nc(C(F)(F)F)cc2-c2ccc3c(ccc4ccccc43)c2)cc1")
0
>>> test_result("CN1CCN(c2nc(C3=C(c4c[nH]c5ccccc45)C(=O)NC3=O)c3ccccc3n2)CC1")
0
>>> test_result("Cc1sc2c(c1C)C(c1ccc(Cl)cc1)=N[C@@H](CC(=O)Nc1ccc(OCCOCCOCCOCCNc3cccc4c3C(=O)N(C3CCC(=O)NC3=O)C4=O)cc1)c1nnc(C)n1-2 (stereo partly specified)")
14.9
>>> test_result("c1cn2cc(-c3ccc4cn[nH]c4c3)nc(Nc3ccc(N4CCOCC4)cc3)c2n1")
0
>>> test_result("C=CC(=O)Nc1cccc(Oc2nc(Nc3ccc(N4CCN(C)CC4)cc3)nc3ccsc23)c1")
0.2
>>> test_result("O=C1CN2Cc3c(ccc(Cl)c3Cl)N=C2N1 [Anagrelide]")
0.7
>>> test_result("O=C(/C=C\\n1cnc(-c2cc(C(F)(F)F)cc(C(F)(F)F)c2)n1)NNc1cnccn1 [Selinexor]")
21.6
>>> test_result("Nc1cccc2c1C(=O)N(C1CCC(=O)NC1=O)C2=O (stereo unspecified) [Pomalidomide]")
0
>>> test_result("O[C@H]1CC[C@H](Nc2ncc3nc(Nc4c(F)cc(F)cc4F)n([C@H]4CCOC4)c3n2)CC1")
0
>>> test_result("Cc1cc(OCc2nnc(SC3CCCC3)n2-c2cccnc2)ccc1-c1ccc(S(C)(=O)=O)cc1")
8
>>> test_result("Cc1cc(C)c(CNC(=O)c2cc(-c3ccc(CN4CCOCC4)cc3)cc3c2cnn3C2CCCC2)c(=O)[nH]1")
0
>>> test_result("N[C@@H]1CCCN(c2c(/C=C3\\SC(=O)NC3=O)cccc2-c2ccccc2)C1")
4.7
>>> test_result("CC(C)n1nc(-c2ccc3oc(N)nc3c2)c2c(N)ncnc21")
12.9
>>> test_result("C[C@@H](Oc1cc(-n2cnc3ccc(CN4CCN(C)CC4)cc32)sc1C(N)=O)c1ccccc1C(F)(F)F")
5.3
>>> test_result("Nc1ncn([C@H]2C[C@H](O)[C@@H](CO)O2)c(=O)n1")
0.4
>>> test_result("COc1cc2c(cc1OC(C)C)[C@H](c1ccc(Cl)cc1)N(c1ccc(N(C)C[C@H]3CC[C@H](N4CCN(C)C(=O)C4)CC3)cc1)C(=O)C2")
5.5
>>> test_result("CCNc1nc(Nc2cc(F)c(C(=O)N3CCOCC3)cc2OC)ncc1C(F)(F)F")
0
>>> test_result("COc1cccc(-c2ccc(NC(=O)C3=C(C(=O)O)CCC3)c(F)c2)c1")
0
